System: BDF1 mice, P388 leukemia ip, median survival T/C
EXPERIMENTAL_PROTOCOL: NCI In Vivo Anticancer Drug Screen. Data for tumor model P388 Leukemia (intraperitoneal) in B6D2F1 (BDF1) mice
STATED_CONDITIONS: endpoint: median survival time; dose: 12.5 mg/kg/injection; schedule: Q01DX009 (ip); vehicle: Klucel (hydroxypropylcellulose) (HPC)
Inconclusive results and toxic doses are left out. The calls were made as follows: active = survival T/C of 150% or more; inactive = T/C below 125% in these data.
Classes used: T = active, F = inactive

{"columns": ["MOLECULE", "CLASS_NAME"],
 "data": [
  ["C1=CC23C4CCC2C2C4C4C(=C1)C3C2N1CCCCC41 (centres undefined)", "F"],
  ["Clc1nc2nc(C(Cl)(Cl)Cl)[nH]c2nc1Cl", "F"],
  ["CCCn1cnc2c(=S)nc(N)[nH]c21", "F"],
  ["CC(=O)O[C@]1(C(C)=O)CC[C@H]2[C@@H]3C[C@H](F)C4=CC(=O)CC[C@]4(C)[C@H]3CC[C@@]21C", "F"],
  ["ClC1CC[N-]CC1.ClC1CC[N-]CC1.[Cl][Pt+2]([Cl])([Cl])[Cl]", "T"],
  ["ClCC#Cc1ccccc1", "F"],
  ["C[C@]12CC[C@H]3[C@@H](CC[C@]4(O)C[C@@H](O)CC[C@]34C=O)[C@@]1(O)CC[C@@H]2C1=CC(=O)OC1", "F"],
  ["O=Cc1ccc(/C=C2\\NC(=O)NC2=O)cc1", "F"],
  ["CC[CH2][Pb]([CH2]CC)([CH2]CC)[N]1C(=O)c2ccccc2C1=O", "F"],
  ["CCCCCCCCCCCCCCC(F)C(=O)O (centres undefined)", "F"],
  ["O=C(C=C(C(F)(F)F)C(F)(F)F)c1ccc(F)cc1", "F"],
  ["COCn1cnc2c(F)ncnc21", "F"],
  ["Cc1ccccc1-n1c(C)nc2ccccc2c1=O", "F"],
  ["CC1CCCC/C1=N/NC(N)=O (centres undefined)", "F"],
  ["O=[N+]([O-])C1(Cl)CCCCC1", "F"],
  ["CC(=O)[C@H]1CC[C@H]2[C@@H]3C[C@H](F)C4=CC(=O)CC[C@]4(C)[C@@]3(F)[C@@H](O)C[C@]12C", "F"],
  ["CS(=O)(=O)OCCN(CCOS(C)(=O)=O)c1cccc(Cl)c1", "T"],
  ["CCCCCCCCCCCCCCCCCCOc1ccccn1", "F"],
  ["C[C@]1(O)CC[C@H]2[C@@H]3CCC4=CC(=O)CC[C@]4(C)[C@@]3(F)C(=O)C[C@@]21C", "F"]
]}

###

Test system: BDF1 mice, P388 leukemia ip, median survival T/C
EXPERIMENTAL_PROTOCOL: NCI In Vivo Anticancer Drug Screen. Data for tumor model P388 Leukemia (intraperitoneal) in B6D2F1 (BDF1) mice
STATED_CONDITIONS: endpoint: median survival time; dose: 400.0 mg/kg/injection; schedule: Q01DX009 (ip); vehicle: saline with Tween-80; higher = longer survival
Inconclusive results and toxic doses are left out.
T/C reference
REPORTED_ENDPOINT: T/C

{"columns": ["COMPOUND", "REPORTED_ENDPOINT", "READOUT_VALUE"],
 "data": [
  ["Nc1cccs1", "T/C", "87 % of control"],
  ["Nc1ncc2[nH]c(C(F)(F)F)nc2n1", "T/C", "117 % of control"],
  ["O=C1Nc2ccc(Br)cc2C1=Nc1ccc2c(c1)OCO2", "T/C", "111 % of control"],
  ["O=C1NC(=S)S/C1=C\\c1ccncc1", "T/C", "106 % of control"],
  ["CC(c1ccccc1)N1COc2ccc3ccccc3c2C1 (stereo unspecified)", "T/C", "113 % of control"],
  ["CCOC(=O)C(O)c1cccc(OC)c1 (stereo unspecified)", "T/C", "104 % of control"],
  ["Cc1ccc(NC(=S)NCCc2ccccn2)cc1C", "T/C", "100 % of control"],
  ["Nc1[nH]nc2nccnc12", "T/C", "100 % of control"],
  ["CN(C)C(=O)c1cccc(NCc2ccc3nc(N)nc(N)c3c2)c1", "T/C", "94 % of control"],
  ["CCOc1ccc(Br)cc1C=O", "T/C", "100 % of control"],
  ["CC(C)c1ncc([N+](=O)[O-])n1C", "T/C", "100 % of control"],
  ["O=C(Cl)c1ccc(N2C(=O)c3ccccc3C2=O)cc1[N+](=O)[O-]", "T/C", "101 % of control"],
  ["CCCCc1ccc(Sc2cccc3c2C(=O)c2c(Sc4ccc(CCCC)cc4)cccc2C3=O)cc1", "T/C", "95 % of control"],
  ["CC(=O)OCC(=O)[C@@]1(O)CC[C@H]2[C@@H]3CCC4=CC(=O)CC[C@]4(C)[C@H]3[C@@H](O)C[C@@]21C", "T/C", "90 % of control"],
  ["CS(=O)(=O)OCCN(Cc1ccc(OS(C)(=O)=O)cc1)S(C)(=O)=O", "T/C", "94 % of control"],
  ["OCC(O)CCBr (stereo unspecified)", "T/C", "170 % of control"],
  ["Cc1cc(C)c2c(=O)[nH][nH]c2n1", "T/C", "94 % of control"],
  ["OC(CCl)C(O)C(O)C(O)CCl (stereo unspecified)", "T/C", "100 % of control"],
  ["C[Si](C)(C)O/C=C1/CCOC1=O", "T/C", "117 % of control"],
  ["Oc1ccc2ccccc2c1N=Nc1ccc(Cl)cc1", "T/C", "95 % of control"],
  ["Cc1[nH]c(N)nc(=S)c1CCC(=O)Nc1ccc(C(=O)NC(CCC(=O)O)C(=O)O)cc1 (stereo unspecified)", "T/C", "106 % of control"],
  ["C[C@H](CCC[C@H](C)OS(=O)(=O)c1ccccc1)OS(=O)(=O)c1ccccc1", "T/C", "182 % of control"],
  ["Cc1ccc(-c2c(O)c(Br)c(-c3ccc(C)cc3C)c(O)c2Br)c(C)c1", "T/C", "100 % of control"],
  ["CCOC(=O)CCC(C(=O)OCC)C(=O)OCC", "T/C", "92 % of control"],
  ["O=C(CCl)N1c2ccccc2Oc2cc3ccccc3cc21", "T/C", "104 % of control"],
  ["CC(=O)N1CCCCCC1=O", "T/C", "90 % of control"]
]}
